The measurements presented in this section are drawn from the Kinase Knowledgebase extract (Sharma et al. 2016).

- test-system: EGFR (Human), P00533 [T790M/L858R]
- experiment-summary: Cell-Based Assay
- condition: h1975
Reported IC50 values for a set of molecules

compound-structure: C=CC(=O)Nc1cccc(-n2c(=O)cc(C)c3cnc(Nc4cn(C)nc4C(F)(F)F)nc32)c1
test-system: EGFR (Human), P00533 [T790M/L858R]
units: nM
IC50: 53

compound-structure: C=CC(=O)Nc1cccc(-n2c(=O)cc(C)c3cnc(Nc4ccc(OCCCN(C)C)cc4)nc32)c1
test-system: EGFR (Human), P00533 [T790M/L858R]
units: nM
IC50: 27

compound-structure: C=CC(=O)Nc1cccc(-n2c(=O)cc(C)c3cnc(Nc4ccc(N(C)CCN(C)C)cc4OC)nc32)c1
test-system: EGFR (Human), P00533 [T790M/L858R]
units: nM
IC50: 8

compound-structure: C=CC(=O)Nc1cccc(-n2c(=O)c(OC)cc3cnc(Nc4ccc(N5CCN(C)CC5)cc4OC)nc32)c1
test-system: EGFR (Human), P00533 [T790M/L858R]
units: nM
IC50: 272

* * *

- test-system: EGFR (Human), P00533 [Inhibition of EGFR Dependent Proliferation of HCC827(.Delta.746-750) cells]
- Sequence (P00533 whole entry, looked up, stated change not applied): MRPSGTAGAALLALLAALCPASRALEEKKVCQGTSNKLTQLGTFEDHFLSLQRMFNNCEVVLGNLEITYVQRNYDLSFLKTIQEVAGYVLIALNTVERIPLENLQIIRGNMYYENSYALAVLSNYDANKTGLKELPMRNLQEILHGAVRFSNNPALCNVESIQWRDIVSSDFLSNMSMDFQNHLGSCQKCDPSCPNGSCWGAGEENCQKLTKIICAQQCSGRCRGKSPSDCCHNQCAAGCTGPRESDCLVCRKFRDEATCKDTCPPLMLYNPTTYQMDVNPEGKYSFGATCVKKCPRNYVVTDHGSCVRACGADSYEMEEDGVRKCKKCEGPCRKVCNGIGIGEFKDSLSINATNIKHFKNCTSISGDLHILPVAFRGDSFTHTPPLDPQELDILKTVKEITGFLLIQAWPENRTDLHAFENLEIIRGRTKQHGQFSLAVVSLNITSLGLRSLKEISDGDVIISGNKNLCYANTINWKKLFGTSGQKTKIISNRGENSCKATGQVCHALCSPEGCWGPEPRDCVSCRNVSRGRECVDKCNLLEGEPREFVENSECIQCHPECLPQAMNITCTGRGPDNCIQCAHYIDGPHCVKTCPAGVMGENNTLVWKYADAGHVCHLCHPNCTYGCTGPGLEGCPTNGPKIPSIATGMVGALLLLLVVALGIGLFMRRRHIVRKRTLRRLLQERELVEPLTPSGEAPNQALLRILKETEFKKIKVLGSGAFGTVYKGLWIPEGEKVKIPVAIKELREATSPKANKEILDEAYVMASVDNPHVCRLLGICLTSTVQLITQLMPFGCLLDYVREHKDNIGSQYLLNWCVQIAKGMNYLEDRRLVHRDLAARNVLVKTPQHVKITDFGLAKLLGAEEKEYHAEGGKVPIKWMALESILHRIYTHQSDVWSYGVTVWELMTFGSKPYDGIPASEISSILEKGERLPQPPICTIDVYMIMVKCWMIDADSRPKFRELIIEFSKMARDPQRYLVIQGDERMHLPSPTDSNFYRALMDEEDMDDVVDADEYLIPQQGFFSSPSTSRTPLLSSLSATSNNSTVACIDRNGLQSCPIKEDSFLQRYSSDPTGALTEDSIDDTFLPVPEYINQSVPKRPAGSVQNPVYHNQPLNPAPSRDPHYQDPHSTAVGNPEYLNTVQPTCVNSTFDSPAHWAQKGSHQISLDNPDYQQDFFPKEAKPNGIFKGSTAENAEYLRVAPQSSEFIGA
- experiment-summary: Cell-Based Assay

compound-structure: C=CC(=O)Nc1cccc(-n2c(=O)cc(C)c3cnc(Nc4ccc(N(C)CCN(C)C)cc4C)nc32)c1
IC50: 124 nM
--
compound-structure: C=CC(=O)Nc1cccc(-n2c(=O)cc(C)c3cnc(Nc4ccc(N5CCN(C)CC5)c(C)c4)nc32)c1
IC50: 36 nM
--
compound-structure: C=CC(=O)Nc1cccc(-n2c(=O)cc(C)c3cnc(Nc4ccc(OCCN(C)C)cc4F)nc32)c1
IC50: 76 nM
--
compound-structure: C=CC(=O)Nc1cccc(-n2c(=O)cc(C)c3cnc(Nc4ccc(N5CCC(C(C)(C)O)CC5)cc4)nc32)c1
IC50: 401 nM

* * *

Reported IC50 values for a set of compounds
- test-system: EGFR (Human), P00533 [Assessment of Phosphorylation of EGFR(.Delta.746-750) in HCC827 Cells]
- Sequence (P00533 whole entry, looked up, stated change not applied): as above
- experiment-summary: Cell-Based Assay

compound-structure: C=CC(=O)Nc1cccc(-n2c(=O)ccc3cnc(Nc4ccc(N5CCN(C)CC5)cc4OC)nc32)c1
IC50, nM: 3.4
//
compound-structure: C=CC(=O)Nc1cccc(-n2c(=O)cc(C)c3cnc(Nc4ccc(N(C)CCN(C)C)cc4OC)nc32)c1
IC50, nM: 24
//
compound-structure: C=CC(=O)Nc1cccc(-n2c(=O)cc(C)c3cnc(Nc4ccc(OCCN(C)C)cc4OC)nc32)c1
IC50, nM: 17
//
compound-structure: C=CC(=O)Nc1cccc(-n2c(=O)cc(C)c3cnc(Nc4ccc(N5CCN(C)CC5)cc4OC)nc32)c1
IC50, nM: 8
//
compound-structure: C=CC(=O)Nc1cccc(-n2c(=O)ccc3cnc(Nc4ccc(NC5CN(CCF)C5)cc4OC)nc32)c1
IC50, nM: 5

* * *

- test-system: EGFR (Human), P00533 [T790M/L858R]
- experiment-summary: Cell-Based Assay
- condition: h1975
pIC50: −log10 of the molar value.
Output satisfied for pIC50 not less than 7; output not satisfied otherwise.

compound-structure: C=CC(=O)Nc1cccc(-n2c(=O)cc(C)c3cnc(Nc4cn(C5CCN(C)CC5)nc4C)nc32)c1.C=CC(=O)Nc1cccc(-n2c(=O)cc(C)c3cnc(Nc4cnn(C5CCN(C)CC5)c4C)nc32)c1
class: not satisfied
//
compound-structure: C=CC(=O)Nc1cccc(-n2c(=O)cc(C)c3cnc(Nc4ccnn4CC)nc32)c1
class: not satisfied
//
compound-structure: C=CC(=O)Nc1cccc(-n2c(=O)cc(C)c3cnc(Nc4ccc(N(C)CCN(C)C)cc4C)nc32)c1
class: satisfied
//
compound-structure: C=CC(=O)Nc1cccc(-n2c(=O)ccc3cnc(Nc4cn(C)nc4C)nc32)c1
class: satisfied
//
compound-structure: C/C=C/C(=O)Nc1cccc(-n2c(=O)cc(C)c3cnc(Nc4ccc(N(C)CCN(C)C)cc4OC)nc32)c1
class: not satisfied
//
compound-structure: C=CC(=O)Nc1cccc(-n2c(=O)cc(C)c3cnc(Nc4ccc(N5CCN(C)CC5)c(C)c4)nc32)c1
class: satisfied
//
compound-structure: C=CC(=O)Nc1cccc(-n2c(=O)cc(C)c3cnc(Nc4cccc(F)c4)nc32)c1
class: not satisfied
//
compound-structure: C=CC(=O)Nc1cccc(-n2c(=O)cc(C)c3cnc(Nc4ccc(N(C)CCO)cc4OC)nc32)c1
class: satisfied
